Exercise: for every item that follows, state its recorded Kd.
target: T1, human programmed cell death protein 1 (hPD-1) C93S (aa 24-167) (Homo sapiens, UniProt Q15116, C93S); experiment: SPR; Carterra LSA; Fab from the ammonium sulfate precipitate of the culture supernatant immobilised on a NiHC200M chip; hPD-1 (1-1024 nM) or mPD-1-Fc (4-1024 nM) as analyte, fourfold dilution series, no regeneration; HBS-EP pH 7.4, 25 °C; medians over the spots of a construct, KD = koff/kon; settings: one partner purified
T1 construct: made as a fusion with a TEV site and human Fc; the Fc was cut off with TEV protease; source: Expi293F, purified (Protein A, TEV cleavage of Fc, SEC; monomer fractions); not shown: Fc (human), C-terminal, cleaved
T1 sequence (Q15116 24-167 C93S): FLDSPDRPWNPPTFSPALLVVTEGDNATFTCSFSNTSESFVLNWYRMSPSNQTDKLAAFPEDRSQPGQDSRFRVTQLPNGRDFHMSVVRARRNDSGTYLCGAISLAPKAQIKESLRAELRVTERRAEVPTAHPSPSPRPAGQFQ

What Kd value was documented for this binder, toripalimab Fab L.N33A (Fab, V domains shown, as the heavy chain of Sm3; light chain of Sm3 with this change; numbers count from the chain's first residue; source: Brevibacillus, culture supernatant (ammonium sulfate precipitate); not shown: 6xHis, C-terminal, kept; 6xHN, C-terminal, kept) VH: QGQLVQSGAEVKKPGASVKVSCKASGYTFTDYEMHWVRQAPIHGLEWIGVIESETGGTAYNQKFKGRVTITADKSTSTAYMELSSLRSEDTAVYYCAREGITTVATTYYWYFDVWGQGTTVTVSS VL: DVVMTQSPLSLPVTLGQPASISCRSSQSIVHSAGNTYLEWYLQKPGQSPQLLIYKVSNRFSGVPDRFSGSGSGTDFTLKISRVEAEDVGVYYCFQGSHVPLTFGQGTKLEIK ? < 0.341 nM

What Kd value was documented for this binder, toripalimab Fab L.L101Y (Fab, V domains shown, as the heavy chain of Sm3; light chain of Sm3 with this change; numbers count from the chain's first residue; source: Brevibacillus, culture supernatant (ammonium sulfate precipitate); not shown: 6xHis, C-terminal, kept; 6xHN, C-terminal, kept) VH: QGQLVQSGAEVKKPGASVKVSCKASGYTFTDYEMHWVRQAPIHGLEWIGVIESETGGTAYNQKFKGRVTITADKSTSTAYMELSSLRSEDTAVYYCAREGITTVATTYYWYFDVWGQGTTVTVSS VL: DVVMTQSPLSLPVTLGQPASISCRSSQSIVHSNGNTYLEWYLQKPGQSPQLLIYKVSNRFSGVPDRFSGSGSGTDFTLKISRVEAEDVGVYYCFQGSHVPYTFGQGTKLEIK ? < 1.18 nM

What Kd value was documented for this binder, toripalimab Fab L.L101N (Fab, V domains shown, as the heavy chain of Sm3; light chain of Sm3 with this change; numbers count from the chain's first residue; source: Brevibacillus, culture supernatant (ammonium sulfate precipitate); not shown: 6xHis, C-terminal, kept; 6xHN, C-terminal, kept) VH: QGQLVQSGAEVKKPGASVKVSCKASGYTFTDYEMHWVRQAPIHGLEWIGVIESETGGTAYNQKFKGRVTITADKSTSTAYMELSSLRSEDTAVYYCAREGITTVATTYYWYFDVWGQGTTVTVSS VL: DVVMTQSPLSLPVTLGQPASISCRSSQSIVHSNGNTYLEWYLQKPGQSPQLLIYKVSNRFSGVPDRFSGSGSGTDFTLKISRVEAEDVGVYYCFQGSHVPNTFGQGTKLEIK ? < 1.23 nM

What Kd value was documented for this binder, toripalimab Fab L.K55A (Fab, V domains shown, as the heavy chain of Sm3; light chain of Sm3 with this change; numbers count from the chain's first residue; source: Brevibacillus, culture supernatant (ammonium sulfate precipitate); not shown: 6xHis, C-terminal, kept; 6xHN, C-terminal, kept) VH: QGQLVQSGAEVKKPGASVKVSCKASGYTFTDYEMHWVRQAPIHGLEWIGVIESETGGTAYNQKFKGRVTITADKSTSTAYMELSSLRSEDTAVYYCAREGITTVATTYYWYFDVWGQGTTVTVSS VL: DVVMTQSPLSLPVTLGQPASISCRSSQSIVHSNGNTYLEWYLQKPGQSPQLLIYAVSNRFSGVPDRFSGSGSGTDFTLKISRVEAEDVGVYYCFQGSHVPLTFGQGTKLEIK ? < 1.18 nM

What Kd value was documented for this binder, toripalimab Fab L.S25A (Fab, V domains shown, as the heavy chain of Sm3; light chain of Sm3 with this change; numbers count from the chain's first residue; source: Brevibacillus, culture supernatant (ammonium sulfate precipitate); not shown: 6xHis, C-terminal, kept; 6xHN, C-terminal, kept) VH: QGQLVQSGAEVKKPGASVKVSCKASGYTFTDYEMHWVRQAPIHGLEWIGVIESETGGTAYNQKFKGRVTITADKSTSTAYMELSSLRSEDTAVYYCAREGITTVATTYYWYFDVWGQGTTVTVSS VL: DVVMTQSPLSLPVTLGQPASISCRASQSIVHSNGNTYLEWYLQKPGQSPQLLIYKVSNRFSGVPDRFSGSGSGTDFTLKISRVEAEDVGVYYCFQGSHVPLTFGQGTKLEIK ? < 0.503 nM

What Kd value was documented for this binder, toripalimab Fab L.R59A (Fab, V domains shown, as the heavy chain of Sm3; light chain of Sm3 with this change; numbers count from the chain's first residue; source: Brevibacillus, culture supernatant (ammonium sulfate precipitate); not shown: 6xHis, C-terminal, kept; 6xHN, C-terminal, kept) VH: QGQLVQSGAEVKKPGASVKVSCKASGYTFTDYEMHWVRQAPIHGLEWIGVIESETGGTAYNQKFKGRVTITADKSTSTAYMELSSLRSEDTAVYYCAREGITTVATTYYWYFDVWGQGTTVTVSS VL: DVVMTQSPLSLPVTLGQPASISCRSSQSIVHSNGNTYLEWYLQKPGQSPQLLIYKVSNAFSGVPDRFSGSGSGTDFTLKISRVEAEDVGVYYCFQGSHVPLTFGQGTKLEIK ? < 0.377 nM
